# credit: paper PMC7211202

- assay_overview: Plasma AMG 232 pharmacokinetics (HPLC-MS, non-compartmental analysis)
- Assay type: in vivo, human
- assay_setup: human, plasma, oral, 240 mg, Day 1, 240-mg dose expansion, Total (n = 47–67); read-out: AUC24h, mean (SD)
recorded_metric: AUC(0-t) (µg·h/mL)
Give just the number in µg·h/mL; leave the unit off.

Prompt: Using the record for CC(C)[C@@H](CS(=O)(=O)C(C)C)N1C(=O)[C@@](C)(CC(=O)O)C[C@H](c2cccc(Cl)c2)[C@H]1c1ccc(Cl)cc1 [AMG 232] , report its AUC(0-t).
Completion: 8.83

* * *

- assay_overview: Plasma AMG 232 pharmacokinetics (HPLC-MS, non-compartmental analysis)
- Assay type: in vivo, human
- assay_setup: human, plasma, oral, 240 mg, Day 7, 240-mg dose expansion, Other Solid (n = 9–16); read-out: Cmax, mean (SD)
- Procedure: Non-compartmental analysis was performed using WinNonlin Professional software, version 6.3. Parameters were summarized descriptively.
recorded_metric: Cmax (ng/mL)
Just the number please, in ng/mL, no unit attached.

Prompt: Param item = `CC(C)[C@@H](CS(=O)(=O)C(C)C)N1C(=O)[C@@](C)(CC(=O)O)C[C@H](c2cccc(Cl)c2)[C@H]1c1ccc(Cl)cc1` ; retrieve measured Cmax.
Completion: 2200
